Target system: T1, human ErbB3-Fc (R&D Systems) (human, UniProt P21860 20-643)
T1 construct: Bought protein; also called wild-type ErbB3-Fc fusion; immobilized ErbB3; not shown: Fc part of the bought fusion protein; not described
Procedure summary: ELISA on ErbB3-Fc, soluble monovalent Sab (Example 42)
pEC50: −log10 of the molar value.
Recorded metric: pEC50

3000-G09 (other, copies: 1 + 1) VH: EVQLLESGGGLVQPGGSLRLSCAASGFTFSSYWMHWVRQAPGKGLEWVALISNGGGYKYYADSVKGRFTISRDNSKNTLYLQMNSLRAEDTAVYYCAKDNEKNLYTWLDYWGQGTLVTVSS light: QPVLHQPPAMSSALGTTIRLTCTLRNDHDIGVYSVYWYQQRPGHPPRFLLRYFSQSDKSQGPQVPPRFSGSKDVARNRGYLSISELQPEDEAMYYCAMGARSSVTHVFGSGTQLTVLSQPKATPSVTLFPPSSEELQANKATLVCLMNDFYPGILTVTWKADGTPITQGVEMTTPSKQSNNKYAASSYLSLTPEQWRSRRSYSCQVMHEGSTVEKTVAPAECS; 9.80

All figures here come from patent US20140308287A1.
